The reported numbers originate from PubChem BioAssay AID651661.

- procedure.summary: EWS/Fli-driven NR0B1 reporter inhibitors, primary screen, A673 cells, NR0B1 luciferase, luminescence, MLPCN library (AID 651661);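 also: firefly luciferase signal divided by Alamar Blue viability fluorescence both relative to DMSO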
- condition.label: viability-normalised, at 12.6 µM, stronger effect = higher value
The whole screen tested about 350,000 compounds, of which about 2,300 (0.66%) were called active. The entries come from a sample that favours actives as a whole.
The label label 1 is reserved for inhibition strictly under 20%; label 0 covers values equal to or above it.

* CC(=O)Nc1ccc(S(=O)(=O)Nc2ccc(-c3ccc4nnc(C)n4n3)cc2)cc1 | label 1
* Cc1ccc2nc(-c3ccc(Br)cc3)cn2c1 | label 0
* O=C(Nc1ccc(N2CCCCC2)cc1)c1cc(S(=O)(=O)N2CCOCC2)ccc1F | label 1
* COC(=O)C[C@@H]1CC[C@@H]2[C@H](COc3ccc(NC(=O)Nc4cccc(F)c4)cc3C(=O)N2C)O1 | label 0
* Cc1ccc(-c2nc3ccc(Br)cn3c2Cc2ccccc2C(F)(F)F)cc1 | label 1

###

- procedure.summary: EWS/Fli-driven NR0B1 reporter inhibitors, primary screen, A673 cells, NR0B1 luciferase, luminescence, MLPCN library (AID 651661);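 also: firefly luciferase signal divided by Alamar Blue viability fluorescence both relative to DMSO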
- condition.label: viability-normalised, at 12.6 µM, stronger effect = higher value
The whole screen tested about 350,000 compounds, of which about 2,300 (0.66%) were called active. Many of the other results were omitted from the sample, so actives are more common in it than they were.
recorded.endpoint: inhibition (%)

• CCC(C)Cn1c(O)cc2nn(-c3nc4ccccc4s3)c(=O)c-2c1C (stereo not given) = 64.5
• NC(=O)c1ccc(NC(=O)COC(=O)c2c3c(nc4ccccc24)/C(=C\c2ccc4c(c2)OCO4)CCC3)cc1 = -2.89
• COc1ccc(-c2cc(NC=O)c3ncc(-c4cc(OC)c(OC)c(OC)c4)n3c2)c(OC)c1 = 52.4
• O=C(CCl)Nc1ccc(Sc2ccc(NC(=O)CCl)cc2)cc1 = 66.1
• CCC(=O)Nc1ccc(Nc2nc(Cl)nc(Nc3ccc(NC(=O)CC)cc3)n2)cc1 = 7.36
• C(=N\Nc1ccc2ccccc2n1)/c1ccc2c(c1)OCO2 = 59.1
• COc1cccc(-c2cnc3c(NC(C)=O)cc(-c4cc(F)ccc4OC)cn23)c1 = 41.5
• COc1ccc(S(=O)(=O)N(C)C[C@H]2Oc3c(NS(=O)(=O)c4cccs4)cccc3C(=O)N([C@H](C)CO)C[C@@H]2C)cc1 = 0.582
• O=C(CCl)Nc1cccc(CP(=O)(c2ccccc2)c2ccccc2)c1 = 28.2
• COc1ccc(-c2cc(NC(C)=O)c3ncc(-c4cc(OC)c(OC)c(OC)c4)n3c2)cn1 = 64.5

###

- procedure.summary: EWS/Fli-driven NR0B1 reporter inhibitors, primary screen, A673 cells, NR0B1 luciferase, luminescence, MLPCN library (AID 651661);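 also: firefly luciferase signal divided by Alamar Blue viability fluorescence both relative to DMSO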
- condition.label: viability-normalised, at 12.6 µM, stronger effect = higher value
Hit rate of the full screen: of about 350,000 compounds, about 2,300 (0.66%) were called active. This is one part of a sample in which actives are shown more often than they occur.
Measured inhibition, listed per entry.
recorded.endpoint: inhibition (%)

• C[C@H]1CN([C@@H](C)CO)C(=O)c2cc(C3=CCCC3)cnc2O[C@@H]1CN(C)Cc1cccnc1 = -9.75
• CN1C(=O)c2cc(NC(=O)C3CC3)ccc2OC[C@@H]2O[C@H](CC(=O)NCC3CCCCC3)CC[C@@H]21 = 6.23
• COc1ccc(-c2ccccc2[C@@H]2[C@@H](C#N)N(C(=O)NC3CCCC3)[C@H]2CO)cc1 = 4.32
• Cc1noc(C)c1NC(=O)N(C)C[C@@H]1Oc2ccc(NC(=O)CCN3CCOCC3)cc2CC(=O)N([C@H](C)CO)C[C@@H]1C = -3.43
